assay: Caco-2 assay (permeability PappAB, PappBA, efflux ratio); assay type: in vitro ADME; conditions: human, Caco-2; efflux ratio PappBA/PappAB; 10 μM test compound, pH 7.4; read-out: Caco ER
Attribute measured: efflux ratio at 90 min, 10 μM

Compound: C[C@H](Oc1cc(-c2ccc(N)nc2)nc(-c2noc3c2CCC[C@@]32CCCc3sc(N)c(C#N)c32)n1)[C@@H]1CCCN1C [II-101]
efflux ratio at 90 min, 10 μM: 7
//
Compound: C[C@H](Oc1cc(-c2ccn(C3COC3)n2)nc(-c2noc3c2CCC[C@@]32CCCc3sc(N)c(C#N)c32)n1)[C@@H]1CCCN1C [II-109]
efflux ratio at 90 min, 10 μM: 7.4

[a] C[C@H](Oc1cc(-n2ccc(C3(O)COC3)n2)nc(-c2noc3c2CCC[C@@]32CCCc3sc(N)c(C#N)c32)n1)[C@@H]1CCCN1C [II-189]
[b] C[C@H](Oc1nc(-c2onc3c2CCC[C@@]32CCCc3sc(N)c(C#N)c32)cc(N2CCNC3(CC3)C2)n1)[C@@H]1CCCN1C [I-2]
Higher efflux ratio at 90 min, 10 μM between a and b ? Give the label under which the chosen entry appears.
b
(b: 17.5, a: 5.8)
